- Test system: PPARg:RXRa 30nM:10nM, anti-RXR (NR concentration 30 nM, RXRa partner concentration 10 nM)
- protocol-notes: PBM binding z-score (relative to random genomic background probes); higher = stronger binding; sequences stand for … in GC…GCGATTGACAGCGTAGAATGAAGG
readout: PBM binding z-score
Give the figure only, with no unit attached.

Guide cases for PBM binding z-score, answers given:
input-sequence: ATCTCTAGGTGACAAGTTCAGTGAAAGAGAGGAC
reading: 1.46
//
input-sequence: CTACCAAGGTGGACAAGGTCGTTGATTACTATTC
reading: -0.189
//
input-sequence: CCTATTTGTTGACCATAAGGGCAACCGAAGCTCG
reading: 0.245
//
input-sequence: GCTGCTAGGTCAGGTTGGTCATCTAACGGGTACG
reading: -0.203
//
input-sequence: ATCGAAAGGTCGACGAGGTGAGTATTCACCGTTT
reading: 1.55

Let us examine a further case.
PBM binding z-score reported for this sequence `CGTCCAAGATCAGCAGGTCAGTGAAAGCGACGTG` : -0.568

Taken from the supplement of paper PMC6555819.
